TARGET: leukotriene D4 (LTD4) induced contraction of guinea pig tracheal tissues (Cavia porcellus, UniProt Q2NNR5)
Construct: Guinea pig (adult male albino Hartley strain) tracheal spiral strips; from tissue; host or cells: guinea pig trachea (spiral strips, adult male albino Hartley strain)
Sequence (Q2NNR5 whole entry): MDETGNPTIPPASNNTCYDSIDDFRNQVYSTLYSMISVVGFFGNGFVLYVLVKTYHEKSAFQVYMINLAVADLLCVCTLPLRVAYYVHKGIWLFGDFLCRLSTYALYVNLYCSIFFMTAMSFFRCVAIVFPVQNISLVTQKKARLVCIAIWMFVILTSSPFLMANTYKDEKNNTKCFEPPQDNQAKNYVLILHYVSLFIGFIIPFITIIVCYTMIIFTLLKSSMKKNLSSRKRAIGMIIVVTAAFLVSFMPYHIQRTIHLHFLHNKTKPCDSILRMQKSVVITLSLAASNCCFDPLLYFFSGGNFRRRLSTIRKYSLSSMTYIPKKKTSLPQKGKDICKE
EXPERIMENT DESCRIPTION: in vitro inhibition of LTD4 induced contraction of guinea pig tracheal spiral strips
Assay type: cell-based, guinea pig (adult male albino Hartley strain)
APPLIED CONDITIONS: guinea pig trachea, LTD4 agonist, 30 min pretreatment with test compound
REPORTED METRIC: Kb (µM)
Give the number; µM is assumed, so skip it.

Ask: Give Kb for the following molecule: O=C(O)CCSC(SCCC(=O)O)c1ccccc1CCCCCCCCC1CCCCC1
Reply: 3.16

Ask: Give Kb for the following molecule: CCCCc1ccc(CCCCc2ccccc2C(SCCC(=O)O)SCCC(=O)O)cc1 [2 2 [drawing 19] H]
Reply: 2.51

Ask: Give Kb for the following molecule: CCCCC/C=C\C/C=C\COc1ccccc1C(SCCC(=O)O)SCCC(=O)O
Reply: 1

Ask: Give Kb for the following molecule: CCCCCCCCCCCOc1ccccc1C(SCCC(=O)O)SCCC(=O)O
Reply: 0.398

Ask: Give Kb for the following molecule: O=C(O)CCSC(SCCC(=O)O)c1ccccc1OCCCCCCc1ccccc1
Reply: 5.01

Ask: Give Kb for the following molecule: O=C(O)CCSC(SCCC(=O)O)c1ccccc1CCCCCCCCc1ccccc1
Reply: 0.316

Ask: Give Kb for the following molecule: CCCCCCCCCCCOc1cccc(C(SCCC(=O)O)SCCC(=O)O)c1
Reply: 0.794

Ask: Give Kb for the following molecule: O=C(O)CCSC(SCCC(=O)O)c1ccccc1CCCCCCCSc1ccccc1
Reply: 0.398

Ask: Give Kb for the following molecule: CCCCCCCCCCCCc1csc(C(SCCC(=O)O)SCCC(=O)O)c1
Reply: 3.16

Ask: Give Kb for the following molecule: O=C(O)CCSC(SCCC(=O)O)c1cc(C(F)(F)F)ccc1CCCCCCCCc1ccccc1
Reply: 0.251

Ask: Give Kb for the following molecule: CCCCCCCCCCCOc1ccccc1C(C)(SCCC(=O)O)SCCC(=O)O
Reply: 5.01

Ask: Give Kb for the following molecule: CCCCCCCCCCCCc1ccccc1C(SCC(=O)O)SCC(=O)O
Reply: 1.26

Ask: Give Kb for the following molecule: CCCCCCCCCCCOc1ccc([N+](=O)[O-])cc1C(SCCC(=O)O)SCCC(=O)O
Reply: 0.794

Ask: Give Kb for the following molecule: CCCCCCCCc1ccccc1C(SCCC(=O)O)SCCC(=O)O
Reply: 6.31

Ask: Give Kb for the following molecule: CCCCCCCCCOc1ccccc1C(SCCC(=O)O)SCCC(=O)O
Reply: 1.58

Ask: Give Kb for the following molecule: CCCCCCCCCCc1ccccc1C(SCCC(=O)O)SCCC(=O)O
Reply: 0.316

Ask: Give Kb for the following molecule: C#CCCCCCCCCCCc1ccccc1C(SCCC(=O)O)SCCC(=O)O
Reply: 0.398

Just for reference, patent US4730005A is where these values come from.
